assay_details: Pharmacokinetics in plasma after oral administration to ICR mice
Type: in vivo
run_parameters: mouse, plasma, oral 10 mg/kg, 4 hr
measured_attribute: concentration at 4 h (ng/mL)

[1] OCc1cc(NC2CCCC2)c2[nH]c(-c3ccccc3)cc2c1 [Comparative Example, reference compound]
[2] OCCOCc1cc(NC2CCOCC2)c2[nH]c(-c3ccccc3)cc2c1
Request: Pick the one with the larger concentration at 4 h: 1 vs 2 Indicate which entry you chose by stating its label.
Result: 2
(2: 2800 ng/mL, 1: 389 ng/mL)

###

Tested on: cardiac cells (H9C2)
assay_details: Protective effect against t-BHP-induced cell death in cardiac cells (LDH release)
Type: cell-based
run_parameters: Rattus norvegicus, t-BHP 400 PM, 2 hours, read-out: EC50, protective effect against cell death due to t-BHP induction
pEC50: −log10 of the molar value.
Recorded pEC50 for the following molecules

A selection of reference data follows.
1. c1ccc(-c2cc3cc(COCCN4CCOCC4)cc(NC4CCOCC4)c3[nH]2)cc1	≥ 6.52
2. OC1CCC(OCCOCc2cc(NC3CCOCC3)c3[nH]c(-c4ccccc4)cc3c2)CC1 (stereo not drawn)	< 6.00
3. CCN(CC)C(=O)c1cc(NC2CCOCC2)c2[nH]c(-c3ccccc3)cc2c1	≥ 6.52
4. CN(CCOCCO)C(=O)c1cc(NC2CCOCC2)c2[nH]c(-c3ccccc3)cc2c1	6.00 to 6.52
5. COCCOCCNCc1cc(NC2CCOCC2)c2[nH]c(-c3ccccc3)cc2c1	≥ 6.52
6. O=C(Cc1cc(NCc2ccccc2)c2[nH]c(-c3ccccc3)cc2c1)NC1CC1	≥ 6.52

Request: Looking for the measured pEC50 of `CC(C)(O)COCc1cc(NC2CCOCC2)c2[nH]c(-c3ccccc3)cc2c1` , can you help?
Result: ≥ 6.52

Request: Again, but for CC1(O)CCC(OCc2cc(NC3CCOCC3)c3[nH]c(-c4ccccc4)cc3c2)CC1 (stereo not drawn)
Result: ≥ 6.52
